This collection of values is drawn from the supplement of paper PMC10567573.

B1: SMOC2 (parent)
chain: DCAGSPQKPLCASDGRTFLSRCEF

- Variants of: B1
- PROTOCOL TEXT: protein stability index of a GFP-peptide fusion (GPS, HEK-293T) (PSI 1-6); higher = more stable;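 also: lentivirally expressed fusions sorted by FACS into six bins by GFP to DsRed ratio, PSI derived from sequencing read proportions per bin multiplied by bin number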
- CONDITION: c terminus: a fixed tail appended
ATTRIBUTE MEASURED: protein stability index
// keep it numeric: no unit symbol after the value

For orientation, consider the following solved cases.
   mutant       attribute_measured  observed_result
0    L19F  protein stability index             4.33
1     D1I  protein stability index             2.92
2     Q7C  protein stability index             2.26
3     A3F  protein stability index             3.16
4     P9W  protein stability index             1.04
5    G15P  protein stability index                3

Prompt line: Endpoint output: protein stability index of `L19G` . Value?
Response line: 3.07

Prompt line: So what's the measured protein stability index for this one? `T17S`
Response line: 2.66

Prompt line: Item `C11Y` has what recorded protein stability index?
Response line: 2.58

Prompt line: Any idea what its protein stability index is? The variant is `K8T`
Response line: 2.69

Prompt line: Requested field: protein stability index. Item: `F18N`
Response line: 4.26

Prompt line: What value of protein stability index has been reported for the following variant? `T17P`
Response line: 3.4
